The entries below are paired with their reported IC50.
- testedSystem: DCN1-UBC12 interaction (Homo sapiens (Human))
- Sequence (Q96GG9 60-248 limits assumed): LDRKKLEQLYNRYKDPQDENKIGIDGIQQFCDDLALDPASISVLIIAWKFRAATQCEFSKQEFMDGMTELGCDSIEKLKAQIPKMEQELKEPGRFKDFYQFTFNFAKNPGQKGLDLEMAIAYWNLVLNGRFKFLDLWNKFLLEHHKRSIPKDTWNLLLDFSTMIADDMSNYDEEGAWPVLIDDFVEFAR
- protocolDescription: biochemical
- Assay type: binding
- reportedConditions: read-out: TR-FRET IC50
API: value field is a number in µM; no unit string.

CCCC(C)N1CCC(N(Cc2ccccc2)C(=O)Nc2c(C(C)C)cccc2C(C)C)CC1 (centres unmarked) ... 13.1
CCCCN1CCC(N(Cc2ccccc2)C(=O)Nc2cccc(Cl)c2)CC1 ... 0.357
CCCC(C)N1CCC(N(Cc2ccccc2)C(=O)Nc2cc(F)ccc2Cl)CC1 (centres unmarked) ... 11
O=C(c1ccccc1Br)N1CCC(c2nc3ccccc3s2)CC1 ... 19.8
CCCC(C)N1CCC(N(Cc2ccccc2)C(=O)Nc2cccc(OC(F)(F)F)c2)CC1 (centres unmarked) ... 0.0827

Task item: Find the recorded IC50 belonging to CCCC(C)N1CCC(N(Cc2ccccc2)C(=O)Nc2ccc(C(=O)OC)cc2Cl)CC1 (centres unmarked) and report it.
Reply: 37.8

Task item: Find the recorded IC50 belonging to `CCCCN1CCC(N(Cc2ccc3c(c2)OCO3)C(=O)Nc2cc(F)cc(C(F)(F)F)c2)CC1` and report it.
Reply: 0.901

Task item: Find the recorded IC50 belonging to `O=C(c1ccc(F)cc1Cl)N1CCC(c2nc3ccccc3s2)CC1` and report it.
Reply: 18.2

Task item: Find the recorded IC50 belonging to CCCC(C)N1CCC(N(Cc2ccccc2NC(=O)CCl)C(=O)Nc2cccc(C(F)(F)F)c2)CC1 (centres unmarked) [drawing 843] and report it.
Reply: 0.208

Task item: Find the recorded IC50 belonging to COc1cc(C(=O)N2CCC(c3nc4ccccc4s3)CC2)cc(OC)c1Br [D1] and report it.
Reply: 2.31
